System: Staphylococcus aureus
procedure.summary: Antibacterial activity against methicillin-resistant Staphylococcus aureus clinical isolate MRSA-14 measured after 16 to 18 hrs by CLSI method
Type: functional
assay.context: time 16-18 hrs
observed.property: MIC (µg/mL)
The reply should be a number in µg/mL, with the unit left off.

// worked examples, MIC included
In [3]: df
Out[3]:
                                   compound  observed_property  readout_number
0  COc1cc(OCCCCCN2CCC(C)CC2)c(CC=C(C)C)c2c1C(=O)CC(c1ccc(OCCCCCN3CCC(C)CC3)cc1)O2 (stereo not drawn)                MIC               8
1  CCCN(CCC)CCCCOc1ccc(C2CC(=O)c3c(OC)cc(OCCCCN(CCC)CCC)c(CC=C(C)C)c3O2)cc1 (stereo not drawn)                MIC              16
2  COc1cc(OCCCN2CCCCC2C)c(CC=C(C)C)c2c1C(=O)CC(c1ccc(OCCCN3CCCCC3C)cc1)O2 (stereo not drawn)                MIC              32
3  COc1cc(OCCCCCN2CCN(C)CC2)c(CC=C(C)C)c2c1C(=O)CC(c1ccc(OCCCCCN3CCN(C)CC3)cc1)O2 (stereo not drawn)                MIC              16

Attention now shifts to the item below.
Exercise: Can you look up the measured MIC of COc1cc(OCCCN2CCC(C)CC2)c(CC=C(C)C)c2c1C(=O)CC(c1ccc(OCCCN3CCC(C)CC3)cc1)O2 (stereo not drawn) for me?
Key: 16
